TESTED_ON: human LPA1 (Homo sapiens)
Construct: expressed in transfected cells; host or cells: Chinese hamster ovary (CHO) cells
Sequence (Q92633 whole entry): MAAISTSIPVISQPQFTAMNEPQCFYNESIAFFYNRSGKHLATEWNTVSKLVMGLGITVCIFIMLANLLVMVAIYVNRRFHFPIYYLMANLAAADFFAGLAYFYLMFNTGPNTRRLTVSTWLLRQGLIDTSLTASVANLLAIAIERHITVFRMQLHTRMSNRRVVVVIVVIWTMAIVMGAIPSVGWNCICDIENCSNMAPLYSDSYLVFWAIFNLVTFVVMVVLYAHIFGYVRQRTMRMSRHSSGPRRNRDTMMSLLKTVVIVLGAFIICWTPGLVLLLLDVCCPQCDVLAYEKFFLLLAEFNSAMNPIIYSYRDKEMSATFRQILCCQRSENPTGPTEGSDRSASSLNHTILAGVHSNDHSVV
PROTOCOL_SUMMARY: LPA1 functional antagonist assay (LPA-induced calcium flux in CHO cells overexpressing human LPA1)
Assay type: cell-based
CONDITION_INFO: inhibition of calcium flux induced by 10 nM LPA, CHO cells overexpressing human LPA1; read-out: hLPA1 IC50
Description: The effectiveness of compounds of the present invention as LPA1 inhibitors can be determined in an LPA1 functional antagonist assay as follows: Chinese hamster ovary cells overexpressing human LPA1 were plated overnight (15,000 cells/well) in poly-D-lysine coated 384-well microplates (Greiner bio-one, Cat #781946) in DMEM/F12 medium (Gibco, Cat #11039). […] IC50 values were determined by fitting data to a 4-parameter logistic equation (GraphPad Prism, San Diego Calif.).
Counter-ions that a name gives are not always drawn.
PROPERTY_LABEL: pIC50
Remember, pIC50 is on a log scale: it is -log10 of the molar concentration.

Recorded pIC50, per entry:
{"MOLECULE": "CCCCc1nc(NCc2c(-c3nc(C)c(O[C@H]4CCC[C@H](C(=O)O)C4)cc3F)nnn2C)no1", "pIC50": 6.84}
{"MOLECULE": "Cc1nc(-c2nnn(C)c2Cn2nnnc2S(C)(=O)=O)ccc1O[C@H]1CCC[C@H](C(=O)O)C1", "pIC50": 5.91}
{"MOLECULE": "Cc1nc(-c2nnn(C)c2Cc2nc(CCC(C)C)no2)ccc1O[C@H]1CCC[C@H](C(=O)O)C1", "pIC50": 7.48}

Now look at this one.
Request: Reported pIC50, molecule Cc1nc(-c2nnn(C)c2Cn2nc(Cc3ccccc3)oc2=N)ccc1O[C@H]1CCC[C@H](C(=O)O)C1 [Example 41, bis TFA salt] : ____
Result: 6.66

These data points were gathered from patent US11319315B2.
